Assay: Plasma concentration in athymic nu/nu mouse bearing human HT-29 tumor at 10 to 100 mg/kg, po administered QD for 14 days
Type: ADME, organism-based
Parameters: dose 10-100 mg/kg, route oral

[
  {
    "compound": "CCN1CCC(Nc2ccc3c(c2)C(=C(c2ccc(Cl)cc2)c2ncc[nH]2)C(=O)N3)CC1 (mixture of isomers)",
    "reading.unit": "nM",
    "concentration at 336 h": 1000
  }
]

* * *

Tested on: Plasma
Assay: Plasma concentration in human MDA-MB-231 cells xenografted mouse at 30 mg/kg
Format: ADME, organism-based
Set-up: dose 30 mg/kg
Details: in vivo
experimental.readout: concentration (nM)

[
  {
    "molecule": "CCN1CCC(Nc2ccc3c(c2)C(=C(c2ccc(Cl)cc2)c2ncc[nH]2)C(=O)N3)CC1 (mixture of isomers)",
    "experimental.readout": "concentration",
    "reading.unit": "nM",
    "recorded.result": 200
  }
]
